Reported z-score by item:
- protocol.description: PSAC antagonists in infected red cells, primary screen, cell-based, P. falciparum Indochina, OD700, 2 h (AID 1155);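 also: lysis reports solute entry through the parasite surface anion channel PSAC; channel blockers reduce lysis of infected cells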
- conditions.used: P. falciparum Indochina infected erythrocytes, osmotic lysis OD700; higher = more signal, called active from +8 up or from −8 down
# print the numeric value only

Previously resolved entries follow.
structure_as_smiles=CC(=O)OC[C@H]1O[C@H](CCON=C2[C@H]3CCn4c(=O)n(-c5ccccc5)c(=O)n4[C@H]3[C@H](O)[C@@H]3O[C@H]23)C=C[C@@H]1OC(C)=O measurement_name=z-score test_value=0.0612
structure_as_smiles=C[C@@H](c1ccccc1)N1C(=O)[C@H]2[C@H]3[C@H](O)[C@H](O)CC(=O)[C@H]3CC[C@H]2C1=O measurement_name=z-score test_value=0.0593
structure_as_smiles=COC(=O)CC=C[C@@H](C)[C@@H](C=NOCC[C@@H]1C=C[C@H](OC(C)=O)[C@@H](COC(C)=O)O1)OC measurement_name=z-score test_value=0.239

Field: next compound
(Q) Fill in: z-score of CO[C@H]1COC(=O)CC=C[C@H](C)[C@@H](OC)COC(=O)[C@@H](C)COC(=O)CC=C[C@@H]1C is ___
(A) 0.106

* * *

- System: Chordin-like protein 2 (CHRDL2)
- protocol.description: CHRDL2 small-molecule binders, primary screen, biochemical, small-molecule microarray, 635 nm fluorescence (AID 1126);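 also: printed compound slides probed with Chrdl2 protein at 4 µg/mL for 1 h at 4 C; score merges 667 nm emission intensity with signal to noise over three replicate slides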
- conditions.used: small-molecule microarray binding, fluorescence 635 nm; higher = more signal
Reported composite z-score by item:
# print the numeric value only

Previously resolved entries follow.
molecule=C#CCCCON=C1[C@H]2CCn3c(=O)n(-c4ccccc4)c(=O)n3[C@H]2[C@H](O)[C@@H]2O[C@H]12 test_target="Chordin-like protein 2 (CHRDL2)" test_value=0.609
molecule="CCOC(=O)[C@H](CC(C)C)NC(=O)CCC1CC(OC(=O)NCc2ccc3c(c2)OCO3)CC2(CCCC(COC(=O)NCC3CCCCC3)O2)O1 (some centres undefined)" test_target="Chordin-like protein 2 (CHRDL2)" test_value=0.567
molecule=CCOC(=O)C1=NO[C@@]2(C=C(Br)C3(OCCCO3)[C@H]3O[C@H]32)C1 test_target="Chordin-like protein 2 (CHRDL2)" test_value=1.52
molecule=O=C1[C@H]2[C@H]3[C@H](O)[C@H](O)CC(=NO[C@@H]4O[C@H](CO)[C@@H](O)[C@H](O)[C@H]4O)[C@H]3CC[C@H]2C(=O)N1c1cccc(Oc2ccccc2)c1 test_target="Chordin-like protein 2 (CHRDL2)" test_value=0.48
molecule=O=C1C[C@@H](O)[C@@H](O)[C@@H]2[C@@H]3C(=O)N(C[C@@H]4CCCO4)C(=O)[C@@H]3CC[C@H]12 test_target="Chordin-like protein 2 (CHRDL2)" test_value=0.72

(Q) Fill in: composite z-score of CCCNC(=O)OC[C@H]1O[C@H](CCON=C(C)C)C=C[C@@H]1Oc1ccc(OC)cc1 is ___
(A) -0.186

(Q) Fill in: composite z-score of O=C1C=C[C@@H](O)[C@@H]2[C@@H]3C(=O)N(C[C@@H]4CCCO4)C(=O)[C@@H]3CC[C@@H]12 is ___
(A) 0.458

* * *

- Test system: Sonic hedgehog protein (Shh)
- protocol.description: small-molecule binders of Shh protein, primary screen, biochemical, small-molecule microarray, 635/667 nm fluorescence (AID 1151);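 also: Shh protein binding to compounds spotted on small-molecule microarray slides; score combines spot fluorescence intensity with signal-to-noise across triplicate slides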
- conditions.used: small-molecule microarray binding, 635 nm fluorescence; higher = more signal
measurement.name: composite z-score

Previously resolved entries follow.
structure_as_smiles=O=c1n(Cc2cc3c(cc2Cl)OCO3)c(=O)n2n1CC[C@@H]1C(=NOCc3ccccc3)[C@H]3O[C@H]3[C@@H](O)[C@@H]12 measurement_name="composite z-score" test_value=0.365
structure_as_smiles=CC(C)=CCCC(C)=CCON=C1C[C@@H](O)[C@@H](O)[C@@H]2[C@@H]3C(=O)N(C[C@@H]4CCCO4)C(=O)[C@@H]3CC[C@H]12 measurement_name="composite z-score" test_value=1.67

(Q) Fill in: composite z-score of COCOc1ccc(Br)cc1C(=O)[C@@H]1O[C@H]1c1cccc(OC)c1 is ___
(A) 0.349

(Q) Fill in: composite z-score of COC(=O)CC=C[C@@H](C)[C@@H](C=NOC[C@H]1O[C@H](c2ccccc2)C=C[C@@H]1Oc1ccc(OC)cc1)OC is ___
(A) 0.161
